read-out: Interleukin 6 (IL6), IL6 (gene 3569); test: LTEA_HepaRG_IL6: Life Technologies and Expression Analysis (LTEA) Assay for Interleukin 6 (IL6) using HepaRG (AID 2283509); conditions: mRNA level, 48 h; actives raise or lower the signal
Activity calls are given as the source filed them. How the source made its calls: active means hit-call score of the fitted dose curve at least 0.9, where 1 is the maximum; inactive means score below 0.9.
Mark one answer only. Choices: active, inactive

Status in this test for Cc1cccc([N+](=O)[O-])c1C ?
inactive

Status in this test for NCC1(Cc2noc(=O)[nH]2)CCCCC1 ?
inactive

Status in this test for Cc1cc(=O)[nH]c(=S)[nH]1 ?
inactive

Status in this test for Nc1ccc(S(=O)(=O)c2ccc(N)cc2)cc1 ?
inactive

Status in this test for COc1ccc(S(=O)(=O)N2C(=O)[C@@](c3ccccc3OC)(N3C[C@H](O)C[C@H]3C(=O)N(C)C)c3cc(Cl)ccc32)c(OC)c1 ?
active

Status in this test for O=C(N[C@@H](Cc1ccccc1)[C@@H](O)C(=O)N1C[C@@H](O)[C@@H](O)C1)c1cc2cc(Cl)ccc2[nH]1 ?
inactive
